From: the supplement of paper PMC13380429

# System: Vero E6
# experiment: cell viability relative to DMSO; higher = less toxic
# measurementSetup: 72 h; 10 nM
measuredMetric: cell viability (%)

                                   molecule  measuredmetric  measurementunit  measvalue
0  O=C(Nc1ccc(C(F)(F)F)cn1)N1CCN(c2ncccc2C(F)(F)F)CC1  cell viability                %       93.9
1  O=C(NCc1ccc(OC(F)(F)F)cc1)C1c2ccccc2C(=O)N1C1CCOCC1 (centres undefined)  cell viability                %        101
2  N#Cc1ccc(C2CCCc3cncn32)cc1 (centres undefined)  cell viability                %       95.6
3  COC(=O)c1c(C)[nH]c(C)c1C(=O)c1ccccc1Cc1ccccc1  cell viability                %        101
4  O=C(c1ccc(C(=O)N2CCC(N3CCCC3)CC2)c(Nc2ccccc2)c1)N1CCC(N2CCCC2)CC1  cell viability                %       95.9
5  Cc1cc(C)cc(NC(=O)Cc2ccc(OC(C)(C)C(=O)O)cc2)c1  cell viability                %       97.5
6  CCCCCCCCCCC(=O)O[C@H]1CC[C@H]2[C@@H]3CCC4=CC(=O)CC[C@]4(C)[C@H]3CC[C@]12C [Testosterone (undecanoate)]  cell viability                %       97.2
7   O=c1sn(-c2cccc3ccccc23)c(=O)n1Cc1ccccc1  cell viability                %       96.8
8  COc1ccccc1N1CCN(CC(O)COc2cc(OC)c(OC)c(OC)c2)CC1 (centres undefined)  cell viability                %        101
